Conditions: in DMF, 313.15 K
Would you mind telling me the reported solubility (mole fraction) of each entry?
API note: the answer field is a bare number with no unit suffix.

Consider the compound O=C(/C=C/c1ccc(-c2cccc([N+](=O)[O-])c2)o1)c1cccc([N+](=O)[O-])c1 and give its recorded solubility (mole fraction).
0.0062

Consider the compound Nc1ccc(C(=O)/C=C/c2ccc(-c3cccc([N+](=O)[O-])c3)o2)cc1 and give its recorded solubility (mole fraction).
0.00264

Consider the compound O=C(/C=C/c1ccc(-c2cccc([N+](=O)[O-])c2)o1)c1ccc(Cl)cc1 and give its recorded solubility (mole fraction).
0.0047

Consider the compound O=C(/C=C/c1ccc(-c2cccc([N+](=O)[O-])c2)o1)CO and give its recorded solubility (mole fraction).
0.0095

Consider the compound O=C(/C=C/c1ccc(-c2cccc([N+](=O)[O-])c2)o1)c1ccc([N+](=O)[O-])cc1 and give its recorded solubility (mole fraction).
0.00245
